- Tested on: sugar beet
- METHOD: Test B pre/postemergence sugar beet
- Type: in vivo, Beta vulgaris
- RUN PARAMETERS: Rate 250 g/ha, Postemergence; scale of 0 to 10 where 0 is no effect and 10 is complete control

| MOLECULE | Plant response rating, Sugarbeets |
| --- | --- |
| CC(=O)C(C)n1c(=O)on(C(=O)N(c2ccccc2)C(C)C)c1=O (stereo not drawn) | 0 |
| CC(C)C(C)n1c(=O)on(C(=O)N(c2ccc(F)cc2)C(C)C)c1=O (stereo not drawn) | 0 |
| CCOC(=O)C=C(Cn1c(=O)on(C(=O)N(c2ccc(F)cc2F)C(C)C)c1=O)OCC | 0 |
| CC(C)N(C(=O)n1oc(=O)n(C2CC3CCC2C3)c1=O)c1ccc(F)cc1F (stereo not drawn) | 0 |
| CC(C)N(C(=O)n1oc(=O)n(C2CCCCO2)c1=O)c1ccc(F)cc1 (stereo not drawn) | 0 |
| CCOC(=O)C=C(Cn1c(=O)on(C(=O)N(c2ccccc2)C(C)C)c1=O)OCC | 0 |
